Test system: OVCAR-5 ovarian
Test: NCI-60 one-dose screen, 48 h (100 = growth as untreated, 0 = no growth, -100 = all killed)
Conditions: 10 µM unless noted
Compounds without any hit were thinned out: in the full panel of roughly 83,000, 20% have a hit.
Decide using growth alone. Strictly below 50%: condition met. Equal to or above 50%: condition not met.

- molecule: "CCOC(=O)C1=C(C)N=C2SC=C(c3ccccc3)N2[C@H]1c1cn[nH]c1-c1ccc(Cl)cc1"
  label-value: "condition not met"
- molecule: "CN1CCN(Cc2cc(NC(=O)c3cccc(C#Cc4cccc5[nH]nc(N)c45)c3)cc(C(F)(F)F)c2)CC1"
  label-value: "condition met"
- molecule: "O=C1OCC2=C1C(c1cccc(C(F)(F)F)c1)c1cc3c(cc1N2CCO)OCO3 (stereo not given)"
  label-value: "condition not met"
- molecule: "CC(=O)c1cc(-c2ccccc2N)n(-c2ccc3c(c2)OCO3)c1C"
  label-value: "condition met"
- molecule: "CN1CCN(Cc2ccc(NC(=O)c3cncc(C#Cc4cncc5ncccc45)c3)cc2C(F)(F)F)CC1"
  label-value: "condition met"
- molecule: "COc1cccc(/C=C/C(=O)c2cc3c(N)c(C(=O)Nc4ccccc4C)sc3nc2C)c1"
  label-value: "condition not met"
- molecule: "CCC/C(=N\\NC(N)=O)C(OC)OC"
  label-value: "condition not met"
- molecule: "c1ccc2cc(Cn3c[n+](Cc4ccc5ccccc5c4)c4ccccc43)ccc2c1"
  label-value: "condition met"
- molecule: "Nc1n[nH]c2ccc([C@@H]3Nc4cc5[nH]ncc5cc4[C@H]4C5CCC(C5)[C@@H]34)cc12 (stereo not given in full)"
  label-value: "condition met"
